test: In vivo fluocinolone acetonide levels in rabbit eyes after intravitreal implant; conditions: vitreous humor, intravitreal implant configuration #29, day 21
endpoint.name: concentration at 21 day (ng/mL)
Kindly provide the numeric value in ng/mL only, without the unit symbol.

State, in one line, measured concentration at 21 day of CC1(C)O[C@@H]2C[C@H]3[C@@H]4C[C@H](F)C5=CC(=O)C=C[C@]5(C)[C@@]4(F)[C@@H](O)C[C@]3(C)[C@]2(C(=O)CO)O1 [Fluocinolone acetonide] 45.7

----------
assay: In vivo fluocinolone acetonide levels in rabbit eyes after intravitreal implant; settings: vitreous humor, intravitreal implant configuration #29, day 14
endpoint.name: concentration at 14 day (ng/mL)
Kindly provide the numeric value in ng/mL only, without the unit symbol.

State, in one line, measured concentration at 14 day of CC1(C)O[C@@H]2C[C@H]3[C@@H]4C[C@H](F)C5=CC(=O)C=C[C@]5(C)[C@@]4(F)[C@@H](O)C[C@]3(C)[C@]2(C(=O)CO)O1 [Fluocinolone acetonide] 50.9
